# assay_details: NCI Yeast Anticancer Drug Screen. Data for the rad14 strain (AID 159);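 also: 0% = growth of vehicle-treated control cultures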
# condition_info: S. cerevisiae rad14 strain growth inhibition; at 1.2 µM; active compounds read high
Compounds without any hit were thinned out: in the full panel of roughly 79,000, 15% have a hit.
measured_property: growth inhibition (%)
Give the value, in units of %, as a plain number.

[[record]]
compound = "O=C(c1c(F)c(F)c(F)c(F)c1F)c1c(F)c(F)c(F)c(F)c1F"
test_value = 10

[[record]]
compound = "O=C(Nc1ccn(C2CC(O)C(COC(c3ccccc3)(c3ccccc3)c3ccccc3)O2)c(=O)n1)c1ccccc1 (stereo not given)"
test_value = -32

[[record]]
compound = "COc1ccc(C(=O)OCCc2ccccc2)cc1"
test_value = 5

[[record]]
compound = "O=[N+]([O-])c1cccc2nc3ccccc3c(NCCC[N+]3([O-])CCOCC3)c12"
test_value = 38


Next, consider the following compound.
Prompt line: Which growth inhibition is listed for CC[N+]1(C)CCC(O)(/C=C/c2ccc(Cl)c(Cl)c2)C(C(=O)/C=C/c2ccc(Cl)c(Cl)c2)C1 (stereo not given) ?
Response line: 6

----------
# assay_details: NCI Yeast Anticancer Drug Screen. Data for the rad14 strain (AID 159);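 also: 0% = growth of vehicle-treated control cultures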
# condition_info: S. cerevisiae rad14 strain growth inhibition; at 11.0 µM; active compounds read high
Compounds without any hit were thinned out: in the full panel of roughly 79,000, 15% have a hit.
Reported growth inhibition is given for each of the following molecules.
Give the value, in units of %, as a plain number.

Example entries and their recorded answers appear below.
[[record]]
molecule = "BrC/C=C/C[P+](c1ccccc1)(c1ccccc1)c1ccccc1"
quantity_unit = "%"
test_value = 96

[[record]]
molecule = "CC(C)(C(=O)NN)c1ccccc1"
quantity_unit = "%"
test_value = 3

[[record]]
molecule = "COc1ccc(C(=O)OCCc2ccccc2)cc1"
quantity_unit = "%"
test_value = -6


Prompt line: Which growth inhibition is listed for "Nc1cccc2cc(Cl)cnc12" ?
Response line: -36

Prompt line: Thanks! And "CN(C)CCNC(=O)c1cccc2nc3c(ccc4ccccc43)nc12" ?
Response line: 14

Prompt line: Thanks! And "Cc1ccc2c(/C=C/c3ccc(N(C)C)cc3)ccnc2c1C" ?
Response line: -11

Prompt line: Thanks! And "c1cc2ccc3cc4ncccc4c4ccc(c1)c2c34" ?
Response line: 20

Prompt line: Thanks! And "Cc1ccc(Nc2n[nH]c(=S)s2)cc1C" ?
Response line: -17

Prompt line: Thanks! And "COc1ccc(C(=O)NCCN(C)C)c2nc3ccccc3cc12" ?
Response line: -9

Prompt line: Thanks! And "O=C(Cc1ccccc1F)NC1=C(Cl)C(=O)c2ccccc2C1=O" ?
Response line: -8

----------
# assay_details: NCI Yeast Anticancer Drug Screen. Data for the rad50EPP+ strain (AID 151);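 also: 0% = growth of vehicle-treated control cultures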
# condition_info: S. cerevisiae rad50 mutant strain, at 3.7 µM, active compounds read high
This is part of a sample that, as a whole, favours compounds with a hit. Of some 79,000 tested, about 15% had one in any assay.
Reported growth inhibition is given for each of the following compounds.
Give the value, in units of %, as a plain number.

Prompt line: Which growth inhibition is listed for "CCCCCC/C(C)=N/Nc1ccc([N+](=O)[O-])cc1[N+](=O)[O-]" ?
Response line: -21

Prompt line: Thanks! And "O=[N+]([O-])c1ccc2nnnn2c1" ?
Response line: -1

Prompt line: Thanks! And "CCOC(=O)C1=C(C)NC(C)=C(C(=O)OCC)C1c1ccc(Cl)cc1" ?
Response line: 4

Prompt line: Thanks! And "CC[C@@]1(OC(=O)CN(C)C)C(=O)OCc2c1cc1n(c2=O)Cc2cc3ccccc3nc2-1" ?
Response line: 79

Prompt line: Thanks! And CCCCCCCCCCCCOC1C(COCCN2CCCC2)OC2OC(C)(C)OC21 (stereo not given) ?
Response line: 27

Prompt line: Thanks! And "C[n+]1c(-c2ccc(NC(=O)c3ccc(C(=O)Nc4ccc(-c5cn6ccccc6[n+]5C)cc4)cc3)cc2)cn2ccccc21" ?
Response line: -6

Prompt line: Thanks! And "CN(C)c1ccc(/C=C/c2ccnc3ccc4ccccc4c23)cc1" ?
Response line: 8

Prompt line: Thanks! And "CC(C)(C(=O)NN)c1ccccc1" ?
Response line: 25

Prompt line: Thanks! And "COc1ccc(/C=C2\CCc3ccccc3C2=O)cc1OC" ?
Response line: -26

Prompt line: Thanks! And "O=S(=O)(O)CC[S][Sn]([S]CCS(=O)(=O)O)([c]1ccccc1)[c]1ccccc1" ?
Response line: -17

Prompt line: Thanks! And Cc1ccccc1C1=C(CC(=O)O)c2ccccc2CC1C (stereo not given) ?
Response line: 2

Prompt line: Thanks! And "N#C/C(=C1C=C/C(=N\O)C(Cl)=C\1)c1ccccc1" ?
Response line: 16

Prompt line: Thanks! And "CNc1ccc2[nH]c3ccccc3c2c1" ?
Response line: -2

Prompt line: Thanks! And "CN(C)CCn1c2ccccc2c2nc3cc4ccccc4cc3nc21" ?
Response line: 38

Prompt line: Thanks! And "CCOC(=O)/C(O)=C(/C=N/C(=S)Nc1c(CC)cccc1CC)C(=O)OCC" ?
Response line: -1

Prompt line: Thanks! And "Nc1ccc2cc(Br)c3ccccc3c2c1" ?
Response line: 5

Prompt line: Thanks! And O=S(=O)(CCC[C@H]1[C@@H](CCOCc2ccccc2)C2CCCN1O2)c1ccccc1 (stereo not given in full) ?
Response line: -1

Prompt line: Thanks! And "O=S(=O)(Oc1c(Cl)cc(Cl)cc1Cl)c1ccccc1" ?
Response line: 23

Prompt line: Thanks! And "S=c1[nH]nc(Cc2ccccc2)c(=S)[nH]1" ?
Response line: -10

Prompt line: Thanks! And [N-]=[N+]=NC1CC(n2ccc(=O)[nH]c2=O)OC1COC(c1ccccc1)(c1ccccc1)c1ccccc1 (stereo not given) ?
Response line: 0

Prompt line: Thanks! And "CCCCOc1ccc(Nc2c3ccccc3nc3ccccc23)cc1" ?
Response line: 71

Prompt line: Thanks! And "Cc1cccc[c]1[Sn]([Cl])([S]/C(C#N)=N/N=C/c1ccc(N(C)C)cc1)[c]1ccccc1C" ?
Response line: -1
